- subject_of_test: T1, human APC-PPACK (active site-blocked APC) (human, UniProt P04070 43-461, active site bound by the tripeptide inhibitor Phe-Pro-Arg-chloromethylketone (PPACK))
- T1 construct: Bought (Haematologic Technologies)
- experiment_summary: ELISA
measurement_kind: binding result

[[record]]
binder = "SR16983-R3-P2-B02 (VHH) VHH: QLQLVESGGGLVQAGGSLRLSCAASGTTFSFVYMGWYRQAPGNQRDLVARISSDGSTNYADSVKGRFTISGDNAKNIVYLQMNSLKPEDTARYYCFYNGHLNKWGQGTQVTVSS"
measurement_kind = "binding result"
recorded_value = "binds"

[[record]]
binder = "SR16983-R2-P4-E11 (VHH) VHH: QLQLVESGGGLVQAGGSLRLSCAASGTTFSFVYMGWYRQAPGNQRDLVARISRDGSTNYLDSVKGRFTISGDNAKNTVYLQMNSLKPEDTARYYCFYNGHLNKWGRGTQVTVSS"
measurement_kind = "binding result"
recorded_value = "binds"

